Entries and their measured pKd follow.
- assayed_target: bovine FcRn complex (bovine) (UniProt F6R592)
- Sequence (chain, as listed by the source, chain 1 of 2): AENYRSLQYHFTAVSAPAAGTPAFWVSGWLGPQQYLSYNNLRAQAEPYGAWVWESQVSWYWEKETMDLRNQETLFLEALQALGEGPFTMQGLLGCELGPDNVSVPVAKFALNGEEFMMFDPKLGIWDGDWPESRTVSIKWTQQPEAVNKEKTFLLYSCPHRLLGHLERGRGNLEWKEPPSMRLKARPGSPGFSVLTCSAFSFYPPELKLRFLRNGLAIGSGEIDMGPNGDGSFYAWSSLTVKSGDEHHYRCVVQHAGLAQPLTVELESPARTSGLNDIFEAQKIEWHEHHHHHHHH
- Sequence (P01888 other isoform, or with tags, fused parts or gaps, chain 2 of 2): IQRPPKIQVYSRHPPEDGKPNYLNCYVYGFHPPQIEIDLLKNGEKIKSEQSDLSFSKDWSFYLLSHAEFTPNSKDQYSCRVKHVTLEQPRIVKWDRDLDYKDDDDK
- test_summary: SPR (Biacore 8K+), pH 5.9, 25 C; FcRn captured by anti-His, IgG as analyte; 1:1 kinetic model
// pKd: -log10(molar conc.)

Reference set, count: 4
{"columns": ["binder", "pKd"],
 "data": [
  ["Bovine Q309V (antibody, part only; not given: variable domains, light chain, IgG1, not shown: another chain or arm of the molecule) Fc: PPELPGGPSVFIFPPKPKDTLTISGTPEVTCVVVDVGHDDPEVKFSWFVDNVEVNTATTKPREEQFNSTYRVVSALRIVHQDWTGGKEFKCKVHNEGLPAPIVRTISRTKGPAREPQVYVLAPPQEELSKSTVSLTCMVTSFYPDYIAVEWQRNGQPESEDKYGTTPPQLDADSSYFLYSKLRVDRNSWQEGDTYTCVVMHEALHNHYTQKSTSKSA", 6.89],
  ["Bovine Y436H (antibody, part only; not given: variable domains and light chain, IgG1, not shown: another chain or arm of the molecule) Fc: PPELPGGPSVFIFPPKPKDTLTISGTPEVTCVVVDVGHDDPEVKFSWFVDNVEVNTATTKPREEQFNSTYRVVSALRIQHQDWTGGKEFKCKVHNEGLPAPIVRTISRTKGPAREPQVYVLAPPQEELSKSTVSLTCMVTSFYPDYIAVEWQRNGQPESEDKYGTTPPQLDADSSYFLYSKLRVDRNSWQEGDTYTCVVMHEALHNHHTQKSTSKSA", 6.65],
  ["Bovine T252Y (antibody, part only; not given: variable domains and light chain, IgG1, not shown: another chain or arm of the molecule) Fc: PPELPGGPSVFIFPPKPKDTLYISGTPEVTCVVVDVGHDDPEVKFSWFVDNVEVNTATTKPREEQFNSTYRVVSALRIQHQDWTGGKEFKCKVHNEGLPAPIVRTISRTKGPAREPQVYVLAPPQEELSKSTVSLTCMVTSFYPDYIAVEWQRNGQPESEDKYGTTPPQLDADSSYFLYSKLRVDRNSWQEGDTYTCVVMHEALHNHYTQKSTSKSA", 7.15],
  ["Bovine N434Y (antibody, part only; not given: variable domains and light chain, IgG1, not shown: another chain or arm of the molecule) Fc: PPELPGGPSVFIFPPKPKDTLTISGTPEVTCVVVDVGHDDPEVKFSWFVDNVEVNTATTKPREEQFNSTYRVVSALRIQHQDWTGGKEFKCKVHNEGLPAPIVRTISRTKGPAREPQVYVLAPPQEELSKSTVSLTCMVTSFYPDYIAVEWQRNGQPESEDKYGTTPPQLDADSSYFLYSKLRVDRNSWQEGDTYTCVVMHEALHYHYTQKSTSKSA", 7.92]
]}

From here, focus on the item given below.
Q: Give recorded pKd. Bovine wild-type (antibody, part only; not given: variable domains, light chain, IgG1, not shown: another chain or arm of the molecule) Fc: PPELPGGPSVFIFPPKPKDTLTISGTPEVTCVVVDVGHDDPEVKFSWFVDNVEVNTATTKPREEQFNSTYRVVSALRIQHQDWTGGKEFKCKVHNEGLPAPIVRTISRTKGPAREPQVYVLAPPQEELSKSTVSLTCMVTSFYPDYIAVEWQRNGQPESEDKYGTTPPQLDADSSYFLYSKLRVDRNSWQEGDTYTCVVMHEALHNHYTQKSTSKSA
Ans: 6.30
